# test: Cell viability of B16 melanoma 4A5 cells
# Format: cell-based, murine
# condition-parameters: mouse, 100 µM, B16 4A5 cells
Measured viability at 72 h, 100 µM, listed per entry for reference.
API: value field is a number in %; no unit string.

// below: answered molecules
[[record]]
molecule = "CCCCCCCCCOC1=C(OCC(O)CO)[C@@H]([C@@H](O)CO)OC1=O (stereo partly drawn) [compound 9, 3-O-(2,3-dihydroxypropyl)-2-O-nonyl-AsA]"
endpoint_result = 58.4

[[record]]
molecule = "CCCCCCOC1=C(OCC(O)CO)C(=O)O[C@@H]1[C@@H](O)CO (stereo partly drawn) [compound 20, 2-O-(2,3-dihydroxypropyl)-3-O-hexyl-AsA]"
endpoint_result = 95.3


// moving on: another record for viability at 72 h, 100 µM
-- ask Which viability at 72 h, 100 µM value is on record for CCCCCCOC1=C(OCC(O)CO)[C@@H]([C@@H](O)CO)OC1=O (stereo partly drawn) [compound 6, 3-O-(2,3-dihydroxypropyl)-2-O-hexyl-AsA] ?
-- reply 77.1

---

Measured viability at 72 h, 3000 µM, listed per entry for reference.
# test: Cell viability of B16 melanoma 4A5 cells
# Type: cell-based, murine
# condition-parameters: mouse, 3000 µM, B16 4A5 cells
API: value field is a number in %; no unit string.

// below: answered compounds
[[record]]
compound = "CCCCOC1=C(OCC(O)CO)C(=O)O[C@@H]1[C@@H](O)CO (stereo partly drawn) [compound 18, 3-O-butyl-2-O-(2,3-dihydroxypropyl)-AsA]"
endpoint_result = 70.6

[[record]]
compound = "CCCCCOC1=C(OCC(O)CO)C(=O)O[C@@H]1[C@@H](O)CO (stereo partly drawn) [compound 19, 2-O-(2,3-dihydroxypropyl)-3-O-pentyl-AsA]"
endpoint_result = 22.5

[[record]]
compound = "OC[C@H]1O[C@@H](Oc2ccc(O)cc2)[C@H](O)[C@@H](O)[C@@H]1O [Arbutin, reference compound]"
endpoint_result = 106

[[record]]
compound = "CCCOC1=C(OCC(O)CO)[C@@H]([C@@H](O)CO)OC1=O (stereo partly drawn) [compound 3, 3-O-(2,3-dihydroxypropyl)-2-O-propyl-AsA]"
endpoint_result = 95


-- ask Which viability at 72 h, 3000 µM value is on record for CCCCCOC1=C(OCC(O)CO)[C@@H]([C@@H](O)CO)OC1=O (stereo partly drawn) [compound 5, 3-O-(2,3-dihydroxypropyl)-2-O-pentyl-AsA] ?
-- reply 78.7

-- ask Could you do the same for CCOC1=C(OCC(O)CO)[C@@H]([C@@H](O)CO)OC1=O (stereo partly drawn) [compound 2, 3-O-(2,3-dihydroxypropyl)-2-O-ethyl-AsA] , please?
-- reply 104

-- ask Could you do the same for O=C1O[C@H]([C@H](O)CO)C(O)=C1O [Erythrobic acid, reference compound] , please?
-- reply 29.8

-- ask Could you do the same for CCCOC1=C(OCC(O)CO)C(=O)O[C@@H]1[C@@H](O)CO (stereo partly drawn) [compound 17, 2-O-(2,3-dihydroxypropyl)-3-O-propyl-AsA] , please?
-- reply 82.9

-- ask Could you do the same for CCCCCCOC1=C(OCC(O)CO)C(=O)O[C@@H]1[C@@H](O)CO (stereo partly drawn) [compound 20, 2-O-(2,3-dihydroxypropyl)-3-O-hexyl-AsA] , please?
-- reply 44.7

---

# test: Cell viability of B16 melanoma 4A5 cells
# Assay type: cell-based, murine
# condition-parameters: mouse, 3000 µM, B16 4A5 cells
Measured viability at 72 h, 3000 µM, listed per entry for reference.
API: value field is a number in %; no unit string.

[[record]]
molecule = "O=C1O[C@H]([C@@H](O)CO)C(O)=C1O"
u = "%"
endpoint_result = 89.2

[[record]]
molecule = "CCOC1=C(OCC(O)CO)C(=O)O[C@@H]1[C@@H](O)CO (stereo partly shown) [compound 16, 2-O-(2,3-dihydroxypropyl)-3-O-ethyl-AsA]"
u = "%"
endpoint_result = 84

[[record]]
molecule = "O=C1O[C@H]([C@@H](O)CO)C(O)=C1OCC(O)CO (stereo partly shown) [compound 15, 2-O-(2,3-dihydroxypropyl)-AsA]"
u = "%"
endpoint_result = 107

[[record]]
molecule = "O=C1O[C@H]([C@@H](O)CO)C(O)=C1O[C@H]1O[C@H](CO)[C@@H](O)[C@H](O)[C@H]1O [2-O-α-D-Glucopyranosyl-AsA, reference compound]"
u = "%"
endpoint_result = 108

[[record]]
molecule = "O=C1O[C@H]([C@@H](O)CO)C(OCC(O)CO)=C1O (stereo partly shown) [compound 1, 3-O-(2,3-dihydroxypropyl)-AsA]"
u = "%"
endpoint_result = 108


-- ask Which viability at 72 h, 3000 µM value is on record for CCCCOC1=C(OCC(O)CO)[C@@H]([C@@H](O)CO)OC1=O (stereo partly shown) [compound 4, 2-O-butyl-3-O-(2,3-dihydroxypropyl)-AsA] ?
-- reply 88.7

-- ask Could you do the same for O=C1O[C@H]([C@@H](O)CO)C(O)=C1OP(=O)(O)O [Magnesium L-ascorbyl-2-phosphate, reference compound] , please?
-- reply 92.8

---

# Test system: tyrosinase from mushroom
# test: Mushroom tyrosinase activity
# Type: biochemical
# condition-parameters: Substrate: L-Tyrosine, 30 µM
assay-metric: Inhibition (%) of mushroom tyrosinase
The answer consists of two parts: a number and, after it, its unit.

// below: answered molecules
[[record]]
molecule = "CCCCCCCCOC1=C(OCC(O)CO)[C@@H]([C@@H](O)CO)OC1=O (stereo partly shown) [compound 8, 3-O-(2,3-dihydroxypropyl)-2-O-octyl-AsA]"
endpoint_result = "−0.3 ± 2.3%"

[[record]]
molecule = "CCCCCCCCCCOC1=C(OCC(O)CO)C(=O)O[C@@H]1[C@@H](O)CO (stereo partly shown) [compound 24, 3-O-decyl-2-O-(2,3-dihydroxypropyl)-AsA]"
endpoint_result = "−3.1 ± 4.1%"

[[record]]
molecule = "CCCCCCCCCOC1=C(OCC(O)CO)[C@@H]([C@@H](O)CO)OC1=O (stereo partly shown) [compound 9, 3-O-(2,3-dihydroxypropyl)-2-O-nonyl-AsA]"
endpoint_result = "4.0 ± 6.1%"


// moving on: another record for Inhibition (%) of mushroom tyrosinase
-- ask What value of Inhibition (%) of mushroom tyrosinase on tyrosinase from mushroom does CCCCCCCCCCCCCOC1=C(OCC(O)CO)[C@@H]([C@@H](O)CO)OC1=O (stereo partly shown) have?
-- reply −7.1 ± 1.7%

---

# Tested on: B16 melanoma 4A5 cells
# test: Theophylline-stimulated melanogenesis inhibition (melanin content)
# Type: cell-based, murine
# condition-parameters: Mus musculus; 3000 µM, theophylline-stimulated B16 4A5 cells, 72 h
assay-metric: inhibition at 3000 µM (%)
API: value field is a number in %; no unit string.

[[record]]
molecule = "CCCCCOC1=C(OCC(O)CO)C(=O)O[C@@H]1[C@@H](O)CO (stereo partly drawn) [compound 19, 2-O-(2,3-dihydroxypropyl)-3-O-pentyl-AsA]"
assay_metric = "inhibition at 3000 µM"
endpoint_result = 97.1

[[record]]
molecule = "CCOC1=C(OCC(O)CO)C(=O)O[C@@H]1[C@@H](O)CO (stereo partly drawn) [compound 16, 2-O-(2,3-dihydroxypropyl)-3-O-ethyl-AsA]"
assay_metric = "inhibition at 3000 µM"
endpoint_result = 42


// moving on: another record for inhibition at 3000 µM
-- ask Which inhibition at 3000 µM value is on record for CCOC1=C(OCC(O)CO)[C@@H]([C@@H](O)CO)OC1=O (stereo partly drawn) [compound 2, 3-O-(2,3-dihydroxypropyl)-2-O-ethyl-AsA] ?
-- reply 40.4

---

Measured viability at 72 h, 3 µM, listed per entry for reference.
# test: Cell viability of B16 melanoma 4A5 cells
# Type: cell-based, murine
# condition-parameters: mouse, 3 µM, B16 4A5 cells
API: value field is a number in %; no unit string.

// below: answered compounds
[[record]]
compound = "CCCCCCCOC1=C(OCC(O)CO)[C@@H]([C@@H](O)CO)OC1=O (stereo partly drawn) [compound 7, 3-O-(2,3-dihydroxypropyl)-2-O-heptyl-AsA]"
endpoint_result = 101

[[record]]
compound = "CCCCCCCCCCCCCCOC1=C(OCC(O)CO)C(=O)O[C@@H]1[C@@H](O)CO (stereo partly drawn)"
endpoint_result = 85.1

[[record]]
compound = "Oc1ccc(O)cc1 [Hydroquinone, reference compound]"
endpoint_result = 94.1

[[record]]
compound = "CCCCCCCCOC1=C(OCC(O)CO)[C@@H]([C@@H](O)CO)OC1=O (stereo partly drawn) [compound 8, 3-O-(2,3-dihydroxypropyl)-2-O-octyl-AsA]"
endpoint_result = 108

[[record]]
compound = "CCCCCCCCCCCCCCOC1=C(OCC(O)CO)[C@@H]([C@@H](O)CO)OC1=O (stereo partly drawn)"
endpoint_result = 101


-- ask Which viability at 72 h, 3 µM value is on record for CCCCCCCCCCCCOC1=C(OCC(O)CO)C(=O)O[C@@H]1[C@@H](O)CO (stereo partly drawn) ?
-- reply 99.8

-- ask Could you do the same for CCCCCCCCCOC1=C(OCC(O)CO)C(=O)O[C@@H]1[C@@H](O)CO (stereo partly drawn) [compound 23, 2-O-(2,3-dihydroxypropyl)-3-O-nonyl-AsA] , please?
-- reply 96.6

-- ask Could you do the same for CCCCCCCCOC1=C(OCC(O)CO)C(=O)O[C@@H]1[C@@H](O)CO (stereo partly drawn) [compound 22, 2-O-(2,3-dihydroxypropyl)-3-O-octyl-AsA] , please?
-- reply 98.8

-- ask Could you do the same for CCCCCCCCCCOC1=C(OCC(O)CO)C(=O)O[C@@H]1[C@@H](O)CO (stereo partly drawn) [compound 24, 3-O-decyl-2-O-(2,3-dihydroxypropyl)-AsA] , please?
-- reply 92.5

-- ask Could you do the same for CCCCCCCCCCCCOC1=C(OCC(O)CO)[C@@H]([C@@H](O)CO)OC1=O (stereo partly drawn) , please?
-- reply 112

-- ask Could you do the same for CCCCCCCCCCCOC1=C(OCC(O)CO)C(=O)O[C@@H]1[C@@H](O)CO (stereo partly drawn) , please?
-- reply 101

-- ask Could you do the same for CCCCCCCCCCCCCOC1=C(OCC(O)CO)C(=O)O[C@@H]1[C@@H](O)CO (stereo partly drawn) , please?
-- reply 105

-- ask Could you do the same for CCCCCCOC1=C(OCC(O)CO)[C@@H]([C@@H](O)CO)OC1=O (stereo partly drawn) [compound 6, 3-O-(2,3-dihydroxypropyl)-2-O-hexyl-AsA] , please?
-- reply 102

-- ask Could you do the same for CCCCCCCCCCOC1=C(OCC(O)CO)[C@@H]([C@@H](O)CO)OC1=O (stereo partly drawn) [compound 10, 2-O-decyl-3-O-(2,3-dihydroxypropyl)-AsA] , please?
-- reply 98.6

-- ask Could you do the same for CCCCCCCCCCCCCOC1=C(OCC(O)CO)[C@@H]([C@@H](O)CO)OC1=O (stereo partly drawn) , please?
-- reply 96.3

-- ask Could you do the same for CCCCCCCCCOC1=C(OCC(O)CO)[C@@H]([C@@H](O)CO)OC1=O (stereo partly drawn) [compound 9, 3-O-(2,3-dihydroxypropyl)-2-O-nonyl-AsA] , please?
-- reply 99.2

-- ask Could you do the same for CCCCCCCCCCCOC1=C(OCC(O)CO)[C@@H]([C@@H](O)CO)OC1=O (stereo partly drawn) , please?
-- reply 106

-- ask Could you do the same for CCCCCCCOC1=C(OCC(O)CO)C(=O)O[C@@H]1[C@@H](O)CO (stereo partly drawn) [compound 21, 2-O-(2,3-dihydroxypropyl)-3-O-heptyl-AsA] , please?
-- reply 97.9

Measured values drawn from paper PMC5979531 for this set.
